Values compiled from patent US20240400614A1.

# subject of test: MMP-7 (Homo sapiens)
# Construct: purchased SIGMA CC1059
# Sequence (P09237 95-267): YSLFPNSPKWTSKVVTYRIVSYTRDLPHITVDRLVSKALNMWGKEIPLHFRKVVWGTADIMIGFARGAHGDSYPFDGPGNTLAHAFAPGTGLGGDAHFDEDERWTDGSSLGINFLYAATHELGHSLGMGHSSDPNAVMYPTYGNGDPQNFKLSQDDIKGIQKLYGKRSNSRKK
# measurement notes: FRET peptide cleavage efficiency with MMP-7 (standard pH 7.5; also pH 6.5)
# Assay type: biochemical
# reported conditions: t = 60 min (Table 9)
Square brackets hold non-standard residues; d marks the D form. Ends that are not written are not given here. Tyr(3-NO2) = N[C@@H](Cc1ccc(O)c([N+](=O)[O-])c1)C(=O)O; Nle = CCCC[C@H](N)C(=O)O; 2Abz = Nc1ccccc1C(=O)O
reported endpoint: % cleavage MMP-7 t = 60 min (%)
Entry rule: numbers only, all in %.

Before answering, review these 10 worked examples.
> print(dat)
                                   substance  value.unit  result.value
 1  SSRGPYMLQG ([2Abz]SSRGPYMLQG[Tyr(3-NO2)]-NH2) [LNK022]           %             0
 2  RGRRHSSKLQ ([2Abz]RGRRHSSKLQ[Tyr(3-NO2)]-NH2) [LNK052]           %             0
 3  SGRVQPLVD (not fully specified (N-terminus, C-terminus)) [LNK047]           %            65
 4  RGRKVANLVG ([2Abz]RGRKVANLVG[Tyr(3-NO2)]-NH2) [LNK031]           %            74
 5  SGRVLRKAGPANLVG ([2Abz]SGRVLRKAGPANLVG[Tyr(3-NO2)]-NH2) [LNK014]           %            79
 6  SGRHSSKLQPLGYFGKL ([2Abz]SGRHSSKLQPLGYFGKL[Tyr(3-NO2)]-NH2) [LNK063]           %             3
 7  RSSYRSL ([2Abz]RSSYRSL[Tyr(3-NO2)]-NH2) [LNK075]           %             0
 8  RGRKPQPLVD ([2Abz]RGRKPQPLVD[Tyr(3-NO2)]-NH2) [LNK039]           %            80
 9  SGRVAGLVG ([2Abz]SGRVAGLVG[Tyr(3-NO2)]-NH2) [LNK016]           %            43
10  SGRVAPY-Nle-LQG ([2Abz]SGRVAPY[Nle]LQG[Tyr(3-NO2)]-NH2) [LNK043]           %           100

Suppose we examine the substance RGRRSGRAANLVRPLGYFGKL ([2Abz]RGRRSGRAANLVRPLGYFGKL[Tyr(3-NO2)]-NH2) [LNK059] ; what % cleavage MMP-7 t = 60 min value has been reported?
0

Suppose we examine the substance RGRRPLGLAG ([2Abz]RGRRPLGLAG[Tyr(3-NO2)]-NH2) [LNK049] ; what % cleavage MMP-7 t = 60 min value has been reported?
4

---

# subject of test: MMP-2 (Homo sapiens, UniProt P08253)
# Construct: purchased SIGMA PF023
# Sequence (P08253 110-660): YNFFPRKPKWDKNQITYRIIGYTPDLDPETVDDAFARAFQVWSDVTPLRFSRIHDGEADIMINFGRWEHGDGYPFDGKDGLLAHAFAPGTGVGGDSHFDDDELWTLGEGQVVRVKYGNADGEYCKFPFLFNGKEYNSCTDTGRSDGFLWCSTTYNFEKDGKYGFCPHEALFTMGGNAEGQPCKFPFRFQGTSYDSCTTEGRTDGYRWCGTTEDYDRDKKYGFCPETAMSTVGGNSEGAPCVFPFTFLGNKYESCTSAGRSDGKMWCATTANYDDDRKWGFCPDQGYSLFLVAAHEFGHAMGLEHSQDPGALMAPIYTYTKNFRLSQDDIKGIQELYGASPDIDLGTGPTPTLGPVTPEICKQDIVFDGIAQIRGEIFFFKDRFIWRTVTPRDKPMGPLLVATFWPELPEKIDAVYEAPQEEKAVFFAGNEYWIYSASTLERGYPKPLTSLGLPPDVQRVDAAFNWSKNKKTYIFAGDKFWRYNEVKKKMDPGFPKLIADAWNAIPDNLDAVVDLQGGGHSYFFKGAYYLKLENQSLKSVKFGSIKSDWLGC
# measurement notes: FRET peptide cleavage efficiency with MMP-2
# Format: biochemical
# reported conditions: t = 15 min; 200 uM linker, 1 ug/ml protease, 37° C., buffer C pH 7.5
Square brackets hold non-standard residues; d marks the D form. Ends that are not written are not given here. Tyr(3-NO2) = N[C@@H](Cc1ccc(O)c([N+](=O)[O-])c1)C(=O)O; 2Abz = Nc1ccccc1C(=O)O
Please use yes (1) whenever % cleavage MMP-2 t = 15 min is not below 60%, and no (0) whenever it is.

> print(dat)
                                  substance  assigned.category
1  SGRVLPYAMTA ([2Abz]SGRVLPYAMTA[Tyr(3-NO2)]-NH2) [LNK024]             no (0)
2  KLFSSKQ ([2Abz]KLFSSKQ[Tyr(3-NO2)]-NH2) [LNK072]             no (0)
3  RQRRSPLGLAG ([2Abz]RQRRSPLGLAG[Tyr(3-NO2)]-NH2) [LNK010]            yes (1)
4  SSRGPASNRRLPLGLAG ([2Abz]SSRGPASNRRLPLGLAG[Tyr(3-NO2)]-NH2) [LNK001]             no (0)
5  SGRVLTLRKAALPLAM ([2Abz]SGRVLTLRKAALPLAM[Tyr(3-NO2)]-NH2) [LNK020]             no (0)

In plain terms: is recorded % cleavage MMP-2 t = 15 min at least 60% for SGRVANPLGGSG ([2Abz]SGRVANPLGGSG[Tyr(3-NO2)]-NH2) [LNK053] ?
no (0)

In plain terms: is recorded % cleavage MMP-2 t = 15 min at least 60% for PASNRRLPLGLAG ([2Abz]PASNRRLPLGLAG[Tyr(3-NO2)]-NH2) [LNK018] ?
no (0)

In plain terms: is recorded % cleavage MMP-2 t = 15 min at least 60% for SGRVLRKAGPANLVG ([2Abz]SGRVLRKAGPANLVG[Tyr(3-NO2)]-NH2) [LNK014] ?
yes (1)

In plain terms: is recorded % cleavage MMP-2 t = 15 min at least 60% for SGRVLTLRKAGPANLVG ([2Abz]SGRVLTLRKAGPANLVG[Tyr(3-NO2)]-NH2) [LNK012] ?
yes (1)

---

# subject of test: matriptase (Homo sapiens)
# Construct: purchased R&D Systems 3946-SEB
# Sequence (Q9Y5Y6 615-855 limits assumed): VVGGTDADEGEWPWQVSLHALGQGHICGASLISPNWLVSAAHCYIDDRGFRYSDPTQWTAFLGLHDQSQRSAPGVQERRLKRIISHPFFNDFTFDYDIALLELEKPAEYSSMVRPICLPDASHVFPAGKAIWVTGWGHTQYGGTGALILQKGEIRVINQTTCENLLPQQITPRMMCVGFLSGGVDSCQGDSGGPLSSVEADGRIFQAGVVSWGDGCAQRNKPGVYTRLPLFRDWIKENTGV
# measurement notes: FRET peptide cleavage efficiency with matriptase
# Type: biochemical
# reported conditions: t = 120 min; 200 uM linker, 1 ug/ml protease, 37° C., buffer B pH 9.0
Square brackets hold non-standard residues; d marks the D form. Ends that are not written are not given here. Tyr(3-NO2) = N[C@@H](Cc1ccc(O)c([N+](=O)[O-])c1)C(=O)O; Nle = CCCC[C@H](N)C(=O)O; 2Abz = Nc1ccccc1C(=O)O
reported endpoint: % cleavage Matriptase t = 120 min (%)
Entry rule: numbers only, all in %.

Before answering, review these 3 worked examples.
> print(dat)
                                  substance            subject.of.test  result.value
1  RQRRS-Nle-PLGLAG ([2Abz]RQRRS[Nle]PLGLAG[Tyr(3-NO2)]-NH2) [LNK025]  matriptase (Homo sapiens)            77
2  SGRVANPLGGSG ([2Abz]SGRVANPLGGSG[Tyr(3-NO2)]-NH2) [LNK053]  matriptase (Homo sapiens)            20
3  SGRVLGPLNLSG ([2Abz]SGRVLGPLNLSG[Tyr(3-NO2)]-NH2) [LNK008]  matriptase (Homo sapiens)            92

Requested read-out % cleavage Matriptase t = 120 min, target or system matriptase (Homo sapiens), entry PASNRRLPLGLAG ([2Abz]PASNRRLPLGLAG[Tyr(3-NO2)]-NH2) [LNK018]
97

Requested read-out % cleavage Matriptase t = 120 min, target or system matriptase (Homo sapiens), entry RSSYYSL ([2Abz]RSSYYSL[Tyr(3-NO2)]-NH2) [LNK076]
0
